All values here come from ChEMBL document CHEMBL5303304.

- Tested on: U2OS
- assay name: Incucyte cell viability with U2OS; further: unitless GR value; below 1 slowed growth and below 0 cell loss
- Assay type: toxicity, cell-based
- test parameters: human, 24 h, 10 µM, compound concentration 10 uM, replicate number 1
value type: Growth Rate

{"columns": ["compound", "value type", "reported"],
 "data": [
  ["CC(C)c1ccc(CC(=O)N[C@H](C)c2ccc(OCC(F)(F)F)cn2)cc1 [SUVECALTAMIDE]", "Growth Rate", 0.78],
  ["Cn1cc(-c2ccc(N(C(=O)NCc3ccccc3)[C@H]3CC[C@H](Nc4ccc(C#N)cn4)CC3)cc2)ccc1=O", "Growth Rate", -0.14],
  ["CN1CCN(c2ccc(Nc3ncc4cc5n(c4n3)C3(CCCCC3)CNC5=O)nc2)CC1", "Growth Rate", 0.84],
  ["c1cnc2cc3c(cc2n1)[C@@H]1CNC[C@H]3C1", "Growth Rate", 0.92]
]}

* * *

- System: Fibroblast
- assay name: Incucyte cell viability with human fibroblast; further: unitless GR value; below 1 slowed growth and below 0 cell loss
- Format: toxicity, cell-based
- test parameters: 24 h, 10 µM, compound concentration 10 uM, replicate number 1
So basically: is Growth Rate under 0.5? Then satisfied. Not under? Then not satisfied.

{"columns": ["molecule", "qualitative label"],
 "data": [
  ["COc1cc(C(=O)NC2CCN(C)CC2)ccc1Nc1ncc2c(n1)N(C1CCCC1)CC(F)(F)C(=O)N2C", "satisfied"],
  ["COc1cccc(CNc2ccc(S(=O)(=O)Nc3nc4ccccc4s3)cc2)c1O", "not satisfied"],
  ["N#C/C(=C\\c1ccc(O)c(O)c1)C(=O)OCCc1cccs1", "not satisfied"],
  ["COCCN1CCN(CCn2ccc(Nc3ncc4c(n3)-c3c(nn(C)c3-c3ccccc3)C[C@H]4C)n2)CC1", "not satisfied"],
  ["COc1ccc(CCCN2CCC(COC(c3ccccc3)c3ccccc3)CC2)cc1.Cl", "satisfied"],
  ["Cc1cc(-c2nncc3c(C(C)(C)C)c(OCc4ncnn4C)nn23)no1", "satisfied"],
  ["CN(C)CCC[C@@]1(c2ccc(F)cc2)OCc2cc(C#N)ccc21", "not satisfied"],
  ["Cn1cnc(Cn2ccc3ccc(CNCc4[nH]c5ccccc5c4[C@@H]4NC(=O)c5ccc(O)cc54)cc32)c1", "not satisfied"],
  ["COc1cc(-c2cncc(-c3ccc(N4CCN(C(C)C)CC4)cc3)c2C)cc(F)c1C(=O)N1CCCC1", "not satisfied"],
  ["CS(C)(=O)=Nc1ccc(-c2ccc(-c3nc4[nH]c(O[C@@H]5CO[C@H]6[C@@H]5OC[C@H]6O)nc4cc3Cl)cc2)cc1", "not satisfied"],
  ["C=CC(=O)Nc1ccc(C(=O)Nc2n[nH]c3c2CN(C(=O)N[C@H](CN(C)C)c2ccccc2)C3(C)C)cc1", "satisfied"],
  ["C=C1/C(=C\\C=C2/CCC[C@]3(C)[C@@H]([C@H](C)CCCC(C)(C)O)CC[C@@H]23)C[C@@H](O)C[C@@H]1O", "not satisfied"],
  ["C[C@@H]1COCCN1c1cc(=O)n2c(n1)N(Cc1cncc(Cl)c1)[C@H](C(F)(F)F)CC2", "not satisfied"],
  ["COCCNc1cc(NC(=O)N2CCCc3cc(CN4CCOCC4=O)c(C=O)nc32)ncc1C#N", "not satisfied"],
  ["CN1CCC(C#N)(NC(=O)[C@@H](NC(=O)N2CCOCC2)C(C)(C)C)CC1", "not satisfied"],
  ["CC(C)S(=O)(=O)c1ccccc1Nc1nc(N[C@@H]2CCCN(CCCCCCCNC(=O)COc3cccc4c3C(=O)N(C3CCC(=O)NC3=O)C4=O)C2)ncc1Cl (some centres not stated)", "satisfied"],
  ["CN1CCCN(C(=O)c2cccc(-c3ccc(/C=C4/C(=O)Nc5ccc(Cl)cc54)o3)c2)CC1", "satisfied"]
]}
